Tested on: Pseudomonas aeruginosa ATCC 27853
Assay: ≥ marks a high value that may be exact or a test limit, other limits are often not marked, values filed in µg/mL are converted to µM
Below, each entry is listed with its recorded MIC.

The following compounds have reported results that may help.
[[record]]
compound = "C[C@H](NC(=O)[C@H](C)NC(=O)[C@H](Cc1c[nH]c2ccccc12)NC(=O)[C@H](Cc1c[nH]c2ccccc12)NC(=O)[C@H](Cc1c[nH]c2ccccc12)NC(=O)[C@H](CCCN=C(N)N)NC(=O)[C@@H]1CSSC[C@H](N)C(=O)N[C@@H](C)C(=O)N[C@@H](CO)C(=O)N[C@@H](Cc2ccc(O)cc2)C(=O)N[C@@H](Cc2ccccc2)C(=O)N1)C(N)=O [CASYFCRWWWAA]"
recorded_result = "> 64 µM"

[[record]]
compound = "CC[C@H](C)[C@H](N)C(=O)N[C@H](C(=O)N1CCC[C@H]1C(=O)N[C@@H](CC(C)C)C(=O)N1CCC[C@H]1C(=O)N[C@@H](CC(C)C)C(=O)NCC(=O)N[C@@H](Cc1ccc(O)cc1)C(=O)N[C@@H](Cc1ccccc1)C(=O)N[C@@H](C)C(=O)N[C@@H](CCCCN)C(=O)N[C@@H](CCCCN)C(=O)N1CCC[C@H]1C(=O)O)[C@@H](C)CC [IIPLPLGYFAKKP]"
recorded_result = "> 68.6 µM"

[[record]]
compound = "C[C@H](NC(=O)[C@H](CCCCN)NC(=O)[C@H](Cc1c[nH]c2ccccc12)NC(=O)CNC(=O)CNC(=O)[C@@H]1CCCN1C(=O)[C@H](CCCCN)NC(=O)[C@H](CCCCN)NC(=O)CN)C(=O)N[C@@H](CCCCN)C(N)=O [GKKPGGWKAK]"
recorded_result = "> 237 µM"


GET /values?readout=MIC&item= CC[C@H](C)[C@H](NC(=O)[C@H](CO)NC(=O)[C@@H]1CCCN1C(=O)[C@H](CC(C)C)NC(=O)[C@@H](NC(=O)[C@H](CO)NC(=O)CNC(=O)[C@H](CC(C)C)NC(=O)[C@@H](NC(=O)[C@H](CO)NC(=O)CNC(=O)[C@H](CC(C)C)NC(=O)[C@H](CC(C)C)NC(=O)CNC(=O)[C@H](CC(C)C)NC(=O)[C@@H](N)Cc1ccccc1)C(C)C)C(C)C)C(=O)N[C@@H](Cc1ccccc1)C(=O)N[C@@H](CCCCN)C(N)=O [FLGLLGSVLGSVLPSIFK]
> 54.1 µM

Repeat for the following compound: C[C@H](N)C(=O)N[C@H](C(=O)N[C@@H](CS)C(=O)N[C@@H](Cc1ccc(O)cc1)C(=O)N[C@H]1CSSC[C@@H](C(=O)N[C@@H](C)C(=O)N[C@H](C(=O)N[C@@H](CCCN=C(N)N)C(=O)O)[C@@H](C)O)NC(=O)[C@H](CCCN=C(N)N)NC(=O)CNC(=O)[C@H]([C@@H](C)O)NC(=O)[C@H](CCCN=C(N)N)NC1=O)[C@@H](C)O [ATCYCRTGRCATR]
> 99.9 µM
